- measurement-notes: pH solubility screen in Citric Acid / Dibasic Sodium Phosphate buffers
- Assay type: physicochemical
- measurement-setup: other pH where soluble
outcome-measure: pH Range where Protein is >80% detected as Soluble and A650 <1 OD: Other
Answers are plain numbers.

Inquiry: Report measured pH Range where Protein is >80% detected as Soluble and A650 <1 OD: Other; entry is SEQID-00265: nutritive polypeptide (protein, listed as Bos taurus) SEGDRLRVELAEKANKLQNELDNVSTLLEEAEKKGIKFAKDAAGLESQLQDTQELLQEETRQKLNLSSRIRQLEEERSSLQEQQEEEEEARRSLEKQLQALQAQLTDTKKKVDDDLGTIENLEEAKKKLLKDVEVLSQRLEEKALAYDKLEKTKTRLQQELDDLLVDLDHQRQIVSNLEKKQKKFDQLLAEEKNISARYAEERDRAEAEAREKETKALSLARALEEALEAREEAERQNKQLRADMEDLMSSKDDVGKNVHELEKSKRALE
Reply text: 3
